# TESTED ON: CXCR4 on cultured U937 and Jurkat cells (human, UniProt P61073 1-352)
# Sequence (P61073 whole entry): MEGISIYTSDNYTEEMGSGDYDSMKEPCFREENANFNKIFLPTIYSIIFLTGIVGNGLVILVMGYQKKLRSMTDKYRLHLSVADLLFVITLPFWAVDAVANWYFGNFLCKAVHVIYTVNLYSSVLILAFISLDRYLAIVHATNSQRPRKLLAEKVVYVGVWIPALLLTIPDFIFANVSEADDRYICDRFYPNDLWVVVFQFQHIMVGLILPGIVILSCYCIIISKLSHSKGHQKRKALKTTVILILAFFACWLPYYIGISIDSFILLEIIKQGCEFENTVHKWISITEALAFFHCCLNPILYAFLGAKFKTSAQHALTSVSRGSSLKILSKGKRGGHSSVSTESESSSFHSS
# TEST DESCRIPTION: cell-based or functional assay
Square brackets hold non-standard residues; d marks the D form. Ends that are not written are not given here.
MEASUREMENT NAME: Percent Inhibition of CXCR4/CXCL12 Induced p-MEK (100 nM Test Article) (%)
Kindly answer with a numeric value in %, unit omitted.

# return recorded Percent Inhibition of CXCR4/CXCL12 Induced p-MEK (100 nM Test Article) for input LERYHHSVRSSLRPFTK [SEQ ID NO: 60] 34

# return recorded Percent Inhibition of CXCR4/CXCL12 Induced p-MEK (100 nM Test Article) for input LRRYHHSVRSSLDPYTK [SEQ ID NO: 67] -8

# return recorded Percent Inhibition of CXCR4/CXCL12 Induced p-MEK (100 nM Test Article) for input LERYHHSVRSSLRPYTK-NH2 [SEQ ID NO: 56] 69

# return recorded Percent Inhibition of CXCR4/CXCL12 Induced p-MEK (100 nM Test Article) for input LRRYHHTVRSSLRPYTK [SEQ ID NO: 38] 51

# return recorded Percent Inhibition of CXCR4/CXCL12 Induced p-MEK (100 nM Test Article) for input LRRYHHSVRSSLRPFTK [SEQ ID NO: 59] 43

# return recorded Percent Inhibition of CXCR4/CXCL12 Induced p-MEK (100 nM Test Article) for input LERYHHSVRSSLRGYTK [SEQ ID NO: 80] 52

# return recorded Percent Inhibition of CXCR4/CXCL12 Induced p-MEK (100 nM Test Article) for input LERYHHS[dA]RSSLRPYSK [SEQ ID NO: 78] 29

# return recorded Percent Inhibition of CXCR4/CXCL12 Induced p-MEK (100 nM Test Article) for input LRRYHHSVRTSLRPYTK [SEQ ID NO: 70] 57

# return recorded Percent Inhibition of CXCR4/CXCL12 Induced p-MEK (100 nM Test Article) for input LRRFHHSVRSSLRPYTK [SEQ ID NO: 53] 62

# return recorded Percent Inhibition of CXCR4/CXCL12 Induced p-MEK (100 nM Test Article) for input [dA]ERYHHS[dA]RSSLRPYTK [SEQ ID NO: 35] -7

# return recorded Percent Inhibition of CXCR4/CXCL12 Induced p-MEK (100 nM Test Article) for input LRRYHHSVRSSLRGYTK [SEQ ID NO: 79] 46

# return recorded Percent Inhibition of CXCR4/CXCL12 Induced p-MEK (100 nM Test Article) for input LRRYHHSVRSSLRPYTK-NH2 [SEQ ID NO: 16] 74

# return recorded Percent Inhibition of CXCR4/CXCL12 Induced p-MEK (100 nM Test Article) for input LERYHHSVRSSLRPYT [SEQ ID NO: 18] 45

# return recorded Percent Inhibition of CXCR4/CXCL12 Induced p-MEK (100 nM Test Article) for input LERYHHS[dA]RTSLRPYTK [SEQ ID NO: 76] 5

# return recorded Percent Inhibition of CXCR4/CXCL12 Induced p-MEK (100 nM Test Article) for input [dA]ERYHHSVRSSLRPYTK [SEQ ID NO: 34] -1

Cited source for all entries: patent US20220395553A1
